Attribution: patent US20190062438A1

MEASUREMENT TARGET: T1, soluble Homo sapiens CD131 comprising a C-terminal 6xHis tag (human, UniProt P32927 17-438)
T1 construct: truncated after Ser438, C-terminal 6xHis; also called shCD131; shβc
T1 sequence: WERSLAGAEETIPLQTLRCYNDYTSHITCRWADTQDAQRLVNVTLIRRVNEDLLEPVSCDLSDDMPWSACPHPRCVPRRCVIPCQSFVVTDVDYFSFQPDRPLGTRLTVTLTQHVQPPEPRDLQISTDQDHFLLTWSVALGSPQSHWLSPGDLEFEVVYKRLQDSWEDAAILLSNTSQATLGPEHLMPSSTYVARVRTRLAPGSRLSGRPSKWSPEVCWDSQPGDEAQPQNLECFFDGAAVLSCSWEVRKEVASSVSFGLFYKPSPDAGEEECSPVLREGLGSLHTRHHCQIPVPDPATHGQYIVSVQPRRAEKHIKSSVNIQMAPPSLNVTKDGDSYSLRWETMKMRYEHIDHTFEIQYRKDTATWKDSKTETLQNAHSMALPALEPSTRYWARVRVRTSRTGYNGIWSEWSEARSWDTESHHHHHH
ASSAY REMARKS: SPR, Fab over captured shCD131
Procedure: Binding kinetics were measured using SPR with a BIAcore™ A-100 instrument (GE Healthcare Life Sciences). […] shCD131 was captured on spots 1 and 5 of each flow cell for 2 minutes at a concentration of 0.4 μg/ml. […] For some analysis purified Fab was injected over each flow cell for 3 minutes and dissociation was monitored for a further 10 minutes. […] The analysis was performed with Fabs at several concentrations between 100 and 0.31 nM, with each concentration analyzed twice and in random order. […]
EXPERIMENTAL ENDPOINT: koff
Note: a bare number is incomplete; add the unit.

Record request: koff value, item 9A2-VR39 Fab (Fab, V domains shown, recombinant Fab) VH: EVQLLESGGGLVQPGGSLRLSCAASGFTFSHYHMLWVRQAPGKGLEWVSSINGRGRVTYYADSVKGRFTISRDNSKNTLYLQMNSLRAEDTAVYYCARFYDSFFDIWGQGTMVTVSS VL: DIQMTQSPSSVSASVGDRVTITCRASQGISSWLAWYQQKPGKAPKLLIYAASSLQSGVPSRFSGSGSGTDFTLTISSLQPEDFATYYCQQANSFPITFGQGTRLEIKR
0.00059 s⁻¹

Record request: koff value, item 9A2-VR39.93 Fab (Fab, V domains shown, recombinant Fab) VH: EVQLLESGGGLVQPGGSLRLSCAASGFTFSHYHMLWVRQAPGKGLEWVSSINGRGRVTYYNPAWKKRFTISRDNSKNTLYLQMNSLRAEDTAVYYCARFYDSFFDIWGQGTMVTVSS VL: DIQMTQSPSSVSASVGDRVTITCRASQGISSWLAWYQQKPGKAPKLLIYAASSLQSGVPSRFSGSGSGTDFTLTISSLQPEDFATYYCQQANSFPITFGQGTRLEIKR
0.00071 s⁻¹

Record request: koff value, item 9A2-VR24.124 Fab (Fab, V domains shown, recombinant Fab) VH: EVQLLESGGGLVQPGGSLRLSCAASGFTFPWYRVHWVRQAPGKGLEWVSSIRSSGGFTYYTPSVRGRFTISRDNSKNTLYLQMNSLRAEDTAVYYCARFYDSFFDIWGQGTMVTVSS VL: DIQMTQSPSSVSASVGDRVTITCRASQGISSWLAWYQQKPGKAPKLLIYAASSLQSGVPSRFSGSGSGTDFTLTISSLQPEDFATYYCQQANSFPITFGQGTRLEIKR
0.00076 s⁻¹
